Entries with their measured log10 Ki, system Acetylcholinesterase (Electrophorus electricus, UniProt O42275):
measurementLabel: log10 Ki (log10 of the value in nM)

[[record]]
compound = "C=CCCCCCCCC1=NC(CCCCC=C)CC1 (stereo not given)"
experimentaltarget = "Acetylcholinesterase (Electrophorus electricus, UniProt O42275)"
reportedmeasurement = 4.11

[[record]]
compound = "CN(C)C(=O)Oc1cccc([N+](C)(C)C)c1 [NEOSTIGMINE BROMIDE]"
experimentaltarget = "Acetylcholinesterase (Electrophorus electricus, UniProt O42275)"
reportedmeasurement = 3.00

[[record]]
compound = "C=CCCCCC1=NC(CCCCCCCCC)CC1 (stereo not given)"
experimentaltarget = "Acetylcholinesterase (Electrophorus electricus, UniProt O42275)"
reportedmeasurement = 3.70

[[record]]
compound = "C=CCCCCC1CCC(CCCCCCCCC)N1 (stereo not given)"
experimentaltarget = "Acetylcholinesterase (Electrophorus electricus, UniProt O42275)"
reportedmeasurement = 3.18

[[record]]
compound = "C=CCCCCCCCC1CCC(CCCCC=C)N1 (stereo not given)"
experimentaltarget = "Acetylcholinesterase (Electrophorus electricus, UniProt O42275)"
reportedmeasurement = 3.40


====

- methodSummary: Partition coefficient (logP)
- Type: physicochemical
- testContext: octanol/water
measurementLabel: logP

[[record]]
molecule = "C=CCCCCC1CCC(CCCCCCCCC)N1 (centres undefined)"
reportedmeasurement = 7.68

[[record]]
molecule = "C=CCCCCCCCC1=NC(CCCCC=C)CC1 (centres undefined)"
reportedmeasurement = 8.02

[[record]]
molecule = "C=CCCCCC1=NC(CCCCCCCCC)CC1 (centres undefined)"
reportedmeasurement = 8.39

[[record]]
molecule = "C=CCCCCCCCC1CCC(CCCCC=C)N1 (centres undefined)"
reportedmeasurement = 7.32

